Every entry's value here was drawn from patent US12275715B2.

Examples of compounds with documented pIC50 follow.
# measured-target: IDH1-R132C recombinant protein (Homo sapiens, UniProt O75874, R132C)
# Sequence (O75874 whole entry R132C): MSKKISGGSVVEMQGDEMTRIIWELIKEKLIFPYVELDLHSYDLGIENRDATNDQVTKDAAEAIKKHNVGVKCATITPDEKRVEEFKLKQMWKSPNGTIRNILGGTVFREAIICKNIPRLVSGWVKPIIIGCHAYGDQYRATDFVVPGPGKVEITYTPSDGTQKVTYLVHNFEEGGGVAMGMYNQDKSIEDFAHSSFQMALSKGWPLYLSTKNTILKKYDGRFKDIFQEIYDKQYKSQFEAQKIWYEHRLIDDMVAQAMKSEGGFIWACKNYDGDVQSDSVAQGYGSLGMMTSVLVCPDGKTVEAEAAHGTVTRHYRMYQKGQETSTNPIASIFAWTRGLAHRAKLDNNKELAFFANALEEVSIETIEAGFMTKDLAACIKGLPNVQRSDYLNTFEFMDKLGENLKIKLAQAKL
# assay-text: IDH1-R132C enzymatic assay (NADPH consumption, diaphorase/resazurin readout)
# conditions: read-out: Enzyme IDH1 R132C Range
pIC50: −log10 of the molar value.

Worked examples follow.
{"compound": "CC(Nc1ccc(C#N)n(C)c1=O)c1cc2cc(Cl)c(F)cc2[nH]c1=O (stereo not shown)", "recorded-value": "6.00 to 7.00"}
{"compound": "C[C@H](Nc1ccc(C#N)n(C)c1=O)c1cc2cc(Cl)cnc2[nH]c1=O", "recorded-value": "5.00 to 6.00"}
{"compound": "C[C@H](Nc1ccc(C#N)n(C)c1=O)c1nc2cc(Cl)ccc2[nH]c1=O", "recorded-value": "5.00 to 6.00"}

Moving on to another compound below.
For reference, reported pIC50 for Cn1c(C(F)(F)F)ccc(NCc2cc3cc(Cl)ccc3[nH]c2=O)c1=O stands at < 5.00

---

# System: HCT116 isogenic IDH1-R132C mutant cells
# assay-text: Cellular 2-HG assay using HCT116 mutant IDH1 cells (R132C)
# Assay type: cell-based
# conditions: Homo sapiens, HCT-116; cellular 2-HG inhibition, 24 hours, RapidFire mass spectrometry; read-out: HCT116 IDH1 R132C Range
property-measured: IC50

Worked examples follow.
{"compound": "C[C@H](Nc1ccc(C#N)n(C)c1=O)c1nc2cc(Cl)ccc2[nH]c1=O", "property-measured": "IC50", "recorded-value": "> 1000 nM"}
{"compound": "C[C@H](Nc1ccc(C#N)n(C)c1=O)c1cc2cc(Cl)c(OCC3CC3)cc2[nH]c1=O", "property-measured": "IC50", "recorded-value": "10 to 100 nM"}
{"compound": "COc1cc2[nH]c(=O)c([C@H](C)Nc3ccc(C#N)n(C)c3=O)cc2cc1Cl", "property-measured": "IC50", "recorded-value": "10 to 100 nM"}

For reference, reported IC50 for CC(Nc1ccc(C#N)n(C)c1=O)c1cc2cc(Cl)c(OCC3CC(F)(F)C3)cc2[nH]c1=O (stereo not drawn) stands at 10 to 100 nM

For reference, reported IC50 for C[C@H](Nc1ccc(C#N)n(C)c1=O)c1cc2cc(Cl)c(F)cc2[nH]c1=O stands at 100 to 1000 nM

For reference, reported IC50 for C[C@H](Nc1ccc(C#N)n(C)c1=O)c1cc2cc(Cl)cc(F)c2[nH]c1=O stands at 100 to 1000 nM

For reference, reported IC50 for CC(Nc1ccc(C#N)n(C)c1=O)c1cc2cc(Cl)c(OCc3ccccn3)cc2[nH]c1=O (stereo not drawn) stands at < 10 nM

For reference, reported IC50 for C[C@@H](Nc1ccc(C#N)n(C)c1=O)c1nc2cc(Cl)ccc2[nH]c1=O stands at > 1000 nM

For reference, reported IC50 for C[C@H](Nc1ncc(C#N)n(C)c1=O)c1cc2cc(Cl)ccc2[nH]c1=O stands at 100 to 1000 nM

---

# System: HCT116 isogenic IDH1-R132C mutant cells
# assay-text: Cellular 2-HG assay using HCT116 mutant IDH1 cells (R132C)
# Assay type: cell-based
# conditions: Homo sapiens, HCT-116; cellular 2-HG inhibition, 24 hours, RapidFire mass spectrometry; read-out: HCT116 IDH1 R132C Range
property-measured: IC50

{"compound": "C[C@H](Nc1ccc(C#N)n(C)c1=O)c1cc2cc(Cl)c(OCc3ccccn3)cc2[nH]c1=O", "property-measured": "IC50", "recorded-value": "< 10 nM"}

# value of IC50, HCT116 isogenic IDH1-R132C mutant cells, item COc1cc2[nH]c(=O)c(C(C)Nc3ccc(C#N)n(C)c3=O)cc2cc1Cl (stereo not shown) = 10 to 100 nM

# value of IC50, HCT116 isogenic IDH1-R132C mutant cells, item C[C@H](Nc1ccc(C#N)n(C)c1=O)c1cc2cc(Cl)c(O[C@H](C)c3ccccn3)cc2[nH]c1=O = < 10 nM

# value of IC50, HCT116 isogenic IDH1-R132C mutant cells, item CC(Nc1ccc(C#N)n(C)c1=O)c1cc2cc(Cl)c(F)cc2[nH]c1=O (stereo not shown) = 10 to 100 nM

---

# measured-target: IDH1-R132H recombinant protein (Homo sapiens, UniProt O75874, R132H)
# Sequence (O75874 whole entry R132H): as the sequence (O75874 whole entry R132C) above, with C132H counted along it
# assay-text: IDH1-R132H enzymatic assay (NADPH consumption, diaphorase/resazurin readout)
# conditions: read-out: Enzyme IDH1 R132H Range
property-measured: IC50

{"molecule": "N#Cc1ccc(NCc2cc3cc(Cl)ccc3[nH]c2=O)c(=O)[nH]1 [Compound I-4]", "recorded-value": "10 to 100 nM"}
{"molecule": "C[C@H](Nc1ccc(C#N)n(C)c1=O)c1cc2cc(Cl)cc(F)c2[nH]c1=O [Compound I-30]", "recorded-value": "10 to 100 nM"}
{"molecule": "C[C@H](Nc1ccc(C#N)n(C)c1=O)c1cc2cc(Cl)cnc2[nH]c1=O [Compound I-31]", "recorded-value": "100 to 1000 nM"}

# value of IC50, IDH1-R132H recombinant protein (Homo sapiens, UniProt O75874, R132H), item Cn1c(C(F)(F)F)ccc(NCc2cc3cc(Cl)ccc3[nH]c2=O)c1=O [Compound I-9] = 100 to 1000 nM

# value of IC50, IDH1-R132H recombinant protein (Homo sapiens, UniProt O75874, R132H), item C[C@H](Nc1ccc(C#N)n(C)c1=O)c1cc2cc(Cl)c(F)cc2[nH]c1=O [Compound I-16] = 10 to 100 nM

---

Examples of molecules with documented pIC50 follow.
# measured-target: IDH1-R132H recombinant protein (Homo sapiens, UniProt O75874, R132H)
# assay-text: IDH1-R132H enzymatic assay (NADPH consumption, diaphorase/resazurin readout)
# Format: biochemical
# conditions: read-out: Enzyme IDH1 R132H Range
pIC50: −log10 of the molar value.

Worked examples follow.
{"molecule": "C[C@H](Nc1ncc(C#N)n(C)c1=O)c1cc2cc(Cl)ccc2[nH]c1=O", "measured-target": "IDH1-R132H recombinant protein (Homo sapiens, UniProt O75874, R132H)", "pIC50": "7.00 to 8.00"}
{"molecule": "O=c1[nH]c2ccc(Cl)cc2cc1CNc1ccc(C(F)(F)F)[nH]c1=O", "measured-target": "IDH1-R132H recombinant protein (Homo sapiens, UniProt O75874, R132H)", "pIC50": "< 6.00"}
{"molecule": "CC(Nc1ccc(C#N)n(C)c1=O)c1cc2cc(Cl)c(OCC3CC(F)(F)C3)cc2[nH]c1=O (stereo not shown)", "measured-target": "IDH1-R132H recombinant protein (Homo sapiens, UniProt O75874, R132H)", "pIC50": "7.00 to 8.00"}
{"molecule": "C[C@@H](Nc1ccc(C#N)n(C)c1=O)c1cc2cc(Cl)c(F)cc2[nH]c1=O", "measured-target": "IDH1-R132H recombinant protein (Homo sapiens, UniProt O75874, R132H)", "pIC50": "< 6.00"}
{"molecule": "COC(=O)c1c[nH]c(=O)c(NCc2cc3cc(Cl)ccc3[nH]c2=O)c1", "measured-target": "IDH1-R132H recombinant protein (Homo sapiens, UniProt O75874, R132H)", "pIC50": "< 6.00"}
{"molecule": "O=c1[nH]c2ccc(Cl)cc2cc1CNc1ccc(Br)[nH]c1=O", "measured-target": "IDH1-R132H recombinant protein (Homo sapiens, UniProt O75874, R132H)", "pIC50": "< 6.00"}

Moving on to another molecule below.
For reference, reported pIC50 for C[C@H](Nc1ccc(C#N)n(C)c1=O)c1nc2cc(Cl)ccc2[nH]c1=O stands at 6.00 to 7.00
